# System: MCF7
# TEST_NAME: NCI tumour cell line growth inhibition, 48 h
Calls of active or inactive are those of the source. Rule as the data show it: active = GI50 up to about 1.1 µM and inactive = higher.
MEASURE_NAME: GI50

{"columns": ["COMPOUND", "REPORTED_RESULT"],
 "data": [
  ["COC(=O)c1ccc(Oc2nc3ccc(C(F)(F)F)cc3nc2-c2ccccc2)cc1", "24.9 µM (inactive)"],
  ["CC12O[C@]3([C@H](C(=O)N4CCOC43C)[C@H]1Cl)[C@H]1O[C@H]12 (stereo not given in full)", "> 100 µM (inactive)"],
  ["O=C(CCc1ccc(O)c(O)c1)NCCc1cc(OCc2ccccc2)cc(OCc2ccccc2)c1", "12 µM (inactive)"],
  ["CC(C)Oc1c(C2(c3ccccc3)SCCCS2)c(=O)c1=O", "> 100 µM (inactive)"],
  ["CCOC(=O)CCc1c(C)c2ccc(O)cc2oc1=O", "> 100 µM (inactive)"],
  ["Oc1ccc(O)c(Cc2ccccc2)c1", "15 µM (inactive)"],
  ["O=c1/c(=C/c2ccc([N+](=O)[O-])o2)sc2n1[C@@H](c1ccc(Cl)cc1)C=C(c1cc(F)c(Cl)cc1Cl)N=2", "13.3 µM (inactive)"],
  ["COC(=O)c1cc(-c2ccc3ccccc3c2)nc(O)c1C#N", "> 100 µM (inactive)"],
  ["CCOC(=O)NN(C(=O)OCC)C(C(=O)c1ccccc1)N(NC(=O)OCC)C(=O)OCC", "> 100 µM (inactive)"],
  ["CC(C)(C)OC(=O)NC1CCCCC1NC(=O)C(=O)NC1CCCCC1NC(=O)OC(C)(C)C (stereo not given)", "> 100 µM (inactive)"]
]}

---

# System: SF-268
# TEST_NAME: NCI tumour cell line growth inhibition, 48 h
Active and inactive are the calls of the source. Cut-off read from the data, not from the text of the source: active = GI50 up to about 1.1 µM and inactive = higher.
Classes used: active, inactive

{"columns": ["COMPOUND", "TARGET_SYSTEM", "CLASS_LABEL"],
 "data": [
  ["Cc1ccc(Nc2nc(=O)c3c([nH]c4ccccc43)s2)cc1", "SF-268", "inactive"],
  ["c1cncc(C2(c3cc4ccccc4[nH]3)COCO2)c1 (configuration not stated)", "SF-268", "inactive"],
  ["COc1ccc(N[S+]([O-])CCCc2ccccc2)cc1 (configuration not stated)", "SF-268", "inactive"],
  ["CCOc1ccc2c(ccc(/C=C/c3cc(C)c4cccnc4c3O)[n+]2C)c1", "SF-268", "active"],
  ["NCCC(=O)N[C@@H](Cc1cc(O)c(O)c(SCC(NC(=O)CC[C@H](N)C(=O)O)C(=O)NCC(=O)O)c1)C(=O)O (some centres not stated)", "SF-268", "inactive"],
  ["O=c1[nH]c(=O)n(C2OC(COP(=O)(O)OP(=O)(O)OC3OC(CO)C(O)C(O)C3O)C(O)C2O)cc1F (configuration not stated)", "SF-268", "active"],
  ["COc1ccc2nc(NC(=O)/C(C#N)=C/c3ccccc3)sc2c1", "SF-268", "inactive"],
  ["COc1ccc(C2=NN(C(=N)S)C(c3ccccc3)C2)cc1 (configuration not stated)", "SF-268", "inactive"],
  ["Cc1ccc(S(=O)(=O)n2cc(C#N)c(C#N)c2)cc1", "SF-268", "inactive"],
  ["O=c1[nH]nc(N/N=C\\c2ccc(Cl)cc2)c2ccccc12", "SF-268", "inactive"],
  ["C[C@@H](c1ccccc1)N(CC#N)[C@H]1CCC[C@]1(O)/C=C/c1ccc2c(c1)OCO2", "SF-268", "inactive"],
  ["COc1ccc(/C=C(\\C(=O)OCC(C)C)c2ccc(OC)c(OC)c2)cc1OC", "SF-268", "inactive"],
  ["O=C1Nc2ccccc2/C1=N/NC(=S)Nc1ccc([N+](=O)[O-])cc1", "SF-268", "inactive"],
  ["CSc1scc2c1/C(=N/NC(N)=O)CCC2", "SF-268", "inactive"],
  ["CC(C)(Br)C(Br)CCC1(C(Br)CBr)CO1 (configuration not stated)", "SF-268", "inactive"],
  ["Cc1ccc2c(=O)cc(Cc3csc4ccccc34)[nH]c2n1", "SF-268", "inactive"],
  ["Cc1cc(Cl)ccc1NC(=O)C(=O)C(C(=O)c1ccc2ccccc2c1)C1OC(=O)c2ccccc21 (configuration not stated)", "SF-268", "inactive"],
  ["CC(=O)O[C@H]1CC[C@]2(C=O)[C@H]3CC[C@]4(C)[C@@H](C5=CC(=O)OC5)CC[C@]4(O)[C@@H]3CC[C@]2(O)C1 [STROPHANTHIDIN ACETATE]", "SF-268", "active"],
  ["COc1ccc2nc3ccccc3c(NCCCCN(CCCl)CCCl)c2c1", "SF-268", "active"],
  ["COc1ccc(/N=N/c2c(C)c(C#N)c(=S)n(C3OC(CO)C(O)C(O)C3O)c2-c2ccccc2)cc1 (configuration not stated)", "SF-268", "inactive"],
  ["O=[N+]([O-])c1ccc(-n2nc3ccc4c(no[n+]4[O-])c3[n+]2[O-])c([N+](=O)[O-])c1", "SF-268", "inactive"],
  ["CO[C@]12S[C@@H]3CCCC[C@@]31C(C)(C)C(=O)N2c1ccccc1", "SF-268", "inactive"],
  ["CCOc1ccc2nc3nc(O)nc(C)c3c(NCCCN(CC)CC)c2c1", "SF-268", "inactive"],
  ["CCc1ccccc1NC(=O)CCc1nnc(S)[nH]1", "SF-268", "inactive"],
  ["CC12CC(C#N)(C#N)C(C#N)(CO1)C(=N)O2 (configuration not stated)", "SF-268", "inactive"],
  ["C/C1=C\\CC[C@@]2(C)O[C@@H]2C[C@@H]2[C@H](C/C(C)=C/CC1)OC(=O)[C@]21CO1", "SF-268", "inactive"],
  ["NCCNS(=O)(=O)c1ccc(N)cc1", "SF-268", "inactive"]
]}

---

# Test system: A498
# TEST_NAME: NCI tumour cell line growth inhibition, 48 h
The source made the active and inactive calls. Cut-off read from the data, not from the text of the source: active = GI50 up to about 1.1 µM and inactive = higher.
Labels: TRUE for active, FALSE for inactive

{"columns": ["MOLECULE", "CLASS_LABEL"],
 "data": [
  ["O=C1N(c2ccccc2)C2(O)C(=O)c3ccccc3C2(O)N1c1ccccc1 (stereo not given)", "FALSE"],
  ["COc1ccc(Cn2c3ccc([N+](=O)[O-])cc3c(=O)n2Cc2ccccn2)cc1", "FALSE"],
  ["COC(=O)NN=C1C(C)(C)C(=NNC(=O)OC)C1(C)C", "FALSE"],
  ["CN(C)CC1CCC/C(=C\\c2ccc(OC(=O)/C=C/c3ccc(Cl)c(Cl)c3)cc2)C1=O (stereo not given)", "FALSE"],
  ["CCCCCCCCCCCCCCCC1(OC)C[N+](C)(C)CCO1 (stereo not given)", "FALSE"],
  ["C=CCC1(O)c2cccc(O)c2C(=O)c2cccc(O)c21 (stereo not given)", "FALSE"],
  ["CC(=O)O[C@H]1CC[C@]2(C=O)[C@H]3CC[C@]4(C)[C@@H](C5=CC(=O)OC5)CC[C@]4(O)[C@@H]3CC[C@]2(O)C1 [STROPHANTHIDIN ACETATE]", "TRUE"],
  ["CC(C)(C)c1cc2c(O)c(c1)C(c1ccccc1)c1cc(C(C)(C)C)cc(c1O)Cc1cc(C(C)(C)C)cc(c1O)C(c1ccccc1)c1cc(C(C)(C)C)cc(c1O)C2 (stereo not given)", "FALSE"],
  ["CN(C)c1nc(N)c(C#N)c(C#N)c1C#N", "FALSE"],
  ["C#CCN(N=O)C(=O)ON1C(=O)CCC1=O", "FALSE"],
  ["N#Cc1c(-c2ccc([N+](=O)[O-])cc2)c(C#N)c(=O)n(NS(=O)(=O)c2ccccc2)c1S", "FALSE"],
  ["Cc1ccc(-n2cnc3c(N/N=C4\\SCC(=O)N4c4ccccc4)ncnc32)cc1", "FALSE"],
  ["COC(=O)c1cc(-c2ccc3ccccc3c2)nc(O)c1C#N", "FALSE"],
  ["CCC1CC2C(=O)N(c3ccccc3)C(=O)C2c2[nH]c3ccccc3c21 (stereo not given)", "FALSE"],
  ["O=c1[nH]c(=O)n(C2CC(O)C(CO)O2)cc1C#Cc1cc(C(F)(F)F)cc(C(F)(F)F)c1 (stereo not given)", "FALSE"],
  ["CCOC(=O)NN(C(=O)OCC)C(C(=O)c1ccccc1)N(NC(=O)OCC)C(=O)OCC", "FALSE"],
  ["S=C1N=C(Cl)/C(=C\\c2ccco2)N1", "FALSE"],
  ["O=S(=O)(c1ccccc1)N1N=C2c3ccccc3CCC[C@H]2C1c1ccccc1 (stereo not given in full)", "FALSE"],
  ["CN(C)c1ccc(C(C#N)N2CCCN(C(C#N)c3ccc(N(C)C)cc3)C2c2ccc(N(C)C)cc2)cc1 (stereo not given)", "FALSE"],
  ["Nc1nc(N)c2ncn(Cc3ccccc3)c2n1", "FALSE"]
]}
